Where these numbers come from: patent US20240239784A1

Tested on: NBD1
Experiment: Aggregation analysis of NBD1 thermal stability by differential static light scattering (DSLS)
Type: binding, Human
Conditions: compound at 100 μM; ΔTagg versus DMSO control
parameterMeasured: DSLS NBD1/3D Human Stability delta-T (° C.) @ 100 (μM)

Recorded DSLS NBD1/3D Human Stability delta-T (° C.) @ 100 (μM), per entry:
molecule: O=C(O)Cc1c(Oc2cccc(-c3nnc(Cc4ccccc4)[nH]3)c2)ccc2[nH]ccc12
observed: B (4-8° C.)

molecule: CN1C(=O)SC(Cc2c(Oc3ccc(F)c(-c4nc(C(C)(O)c5ccccc5)c[nH]4)c3)c(F)cc3[nH]ccc23)C1=O (stereo not drawn)
observed: B (4-8° C.)

molecule: NCc1nc(-c2cc(Oc3c(F)cc4[nH]ccc4c3F)ccc2F)[nH]c1Cc1ccccc1
observed: B (4-8° C.)

molecule: Cc1c(Oc2ccc(F)c(-c3ncc(C(C)(O)c4ccccc4)[nH]3)c2)c(F)cc2[nH]cc(CC(=O)O)c12 (stereo not drawn)
observed: B (4-8° C.)

molecule: Nc1ccc(-c2n[nH]c(Cc3ccccc3)n2)cc1Oc1ccc2[nH]ccc2c1
observed: B (4-8° C.)

molecule: COCCS(=O)(=O)c1c(Oc2cccc(-c3ncc(C(C)(O)c4ccccc4)[nH]3)c2)c(F)cc2[nH]ccc12 (stereo not drawn)
observed: B (4-8° C.)

molecule: CC(O)(c1ccccc1)c1nnc(-c2cccc(Oc3ccc4[nH]ccc4n3)c2)[nH]1 (stereo not drawn)
observed: B (4-8° C.)

molecule: OC(c1ccccc1)c1cnc(-c2cccc(Oc3ccc4[nH]ccc4n3)c2)[nH]1 (stereo not drawn)
observed: B (4-8° C.)

Working through the 4 molecules below one at a time, give DSLS NBD1/3D Human Stability delta-T (° C.) @ 100 (μM) for each.
1. CS(=O)(=O)NC(=O)CCc1c(Oc2cccc(-c3nnc(Cc4ccccc4)[nH]3)c2)ccc2[nH]ccc12
2. O=C(O)c1c(Oc2cccc(-c3nc(C(O)c4ccccc4)c[nH]3)c2)ccc2[nH]ccc12 (stereo not drawn)
3. Cn1nc(-c2cccc(Oc3ccc4[nH]ccc4c3C(N)=O)c2)nc1Cc1ccccc1
4. O=C(O)CCc1c(Oc2cccc(-c3nnc(Cc4ccccc4)[nH]3)c2)ccc2[nH]ccc12

Output:
1: B (4-8° C.); 2: B (4-8° C.); 3: B (4-8° C.); 4: A (T ≥8° C.)

# return DSLS NBD1/3D Human Stability delta-T (° C.) @ 100 (μM) for each item in the list
1. CC(C)(c1ccccc1)c1cnc(-c2cc(Oc3c(F)cc4[nH]ccc4c3CC(=O)O)ccc2F)[nH]1
2. Cc1c(Oc2ccc(F)c(-c3ncc(C(C)(CCC(=O)O)c4ccccc4)[nH]3)c2)c(F)cc2[nH]ccc12 (stereo not drawn)
3. CC(=O)c1c(Oc2cccc(-c3nc(C(C)(O)c4ccccc4)c[nH]3)c2)c(F)cc2[nH]ccc12 (stereo not drawn)

Output:
1: A (T ≥8° C.); 2: B (4-8° C.); 3: A (T ≥8° C.)
